Origin of values: PubChem BioAssay AID2060603

Some compounds, each annotated with its measured viability, T/C.
System: 422866-222-R5-J1-PDC spheroid viability
Assay: Anticancer human tumor 422866-222-R5-J1-PDC patient-derived pancreatic adenocarcinoma cell line growth inhibition [CLK]
Conditions: second compound 3.16 µM; first compound 10 µM; stronger effect = lower value; spheroids with HUVEC and MSC
The response must be a number in % with no trailing unit.

The cases that follow already have their viability, T/C on record.
>>> readout_value("Nc1ccccc1NC(=O)c1ccc(CNC(=O)OCc2cccnc2)cc1 + CNC(=O)c1ccc(Nc2nc(OC3CCCC3)c3c(-c4ccc5nc(C)oc5c4)c[nH]c3n2)c(OC)c1")
49.6
>>> readout_value("C=C(F)C(=O)N1CCN(c2nc(OCC3CCCN3C)nc3c2CCN(c2cccc4cccc(Cl)c24)C3)CC1CC#N (stereo not drawn) + CNC(=O)c1ccc(Nc2nc(OC3CCCC3)c3c(-c4ccc5nc(C)oc5c4)c[nH]c3n2)c(OC)c1")
0.15
>>> readout_value("COc1cccc2c1C(=O)c1c(O)c3c(c(O)c1C2=O)CC(O)(C(=O)CO)CC3OC1CC(N)C(O)C(C)O1 (stereo not drawn) + CN1CCN(c2cc(C(=O)Nc3cc4cc(-c5cnn(C)c5)ccc4cn3)ccn2)CC1")
51

Problem: Provide value of viability, T/C for this record tested with 422866-222-R5-J1-PDC spheroid viability: CC(=O)O[C@H]1C(=O)[C@@]2(C)[C@H]([C@H](OC(=O)c3ccccc3)[C@]3(O)C[C@H](OC(=O)[C@H](O)[C@@H](NC(=O)c4ccccc4)c4ccccc4)C(C)=C1C3(C)C)[C@]1(OC(C)=O)CO[C@@H]1C[C@@H]2O + CNC(=O)c1ccc(Nc2nc(OC3CCCC3)c3c(-c4ccc5nc(C)oc5c4)c[nH]c3n2)c(OC)c1
Result: 79

Problem: Test system 422866-222-R5-J1-PDC spheroid viability; read-out viability, T/C; what value for C#Cc1c(F)ccc2cc(O)cc(-c3ncc4c(N5CC6CCC(C5)N6)nc(OCC56CCCN5CC(F)C6)nc4c3F)c12 (stereo not drawn) + CNC(=O)c1ccc(Nc2nc(OC3CCCC3)c3c(-c4ccc5nc(C)oc5c4)c[nH]c3n2)c(OC)c1 ?
Result: 24

Problem: What measured viability, T/C is associated with CC1COCCN1c1cc(C2(S(C)(=N)=O)CC2)nc(-c2ccnc3[nH]ccc23)n1 (stereo not drawn) + CNC(=O)c1ccc(Nc2nc(OC3CCCC3)c3c(-c4ccc5nc(C)oc5c4)c[nH]c3n2)c(OC)c1 on 422866-222-R5-J1-PDC spheroid viability?
Result: 53.8

Problem: Identify the measured viability, T/C of Nc1ccccc1NC(=O)c1ccc(CNC(=O)OCc2cccnc2)cc1 + CN1CCN(c2cc(C(=O)Nc3cc4cc(-c5cnn(C)c5)ccc4cn3)ccn2)CC1 for 422866-222-R5-J1-PDC spheroid viability.
Result: 8.29

Problem: Give 422866-222-R5-J1-PDC spheroid viability viability, T/C for O=C(c1cc(Cc2n[nH]c(=O)c3ccccc23)ccc1F)N1CCN(C(=O)C2CC2)CC1 + CN1CCN(c2cc(C(=O)Nc3cc4cc(-c5cnn(C)c5)ccc4cn3)ccn2)CC1
Result: 12.3

---

Test system: 422866-222-R5-J1-PDC spheroid viability
Experiment: Anticancer human tumor 422866-222-R5-J1-PDC cell line growth inhibition [CLK]; active = viability on the fitted dose curve at most 10% of control; inactive = the rest;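 note: spheroids exposed to agents for seven days before readout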
Settings: second compound 0.1 µM; first compound 0.0949 µM; spheroids with HUVEC and MSC
Write down one outcome, taken from active, inactive

// known answers, use as guide
>>> cat("CC(C)CC(NC(=O)C(Cc1ccccc1)NC(=O)c1cnccn1)B(O)O (stereo unspecified) + CN1CCN(c2cc(C(=O)Nc3cc4cc(-c5cnn(C)c5)ccc4cn3)ccn2)CC1")
"active"
>>> cat("CC(C)CC(NC(=O)C(Cc1ccccc1)NC(=O)c1cnccn1)B(O)O (stereo unspecified) + CNC(=O)c1ccc(Nc2nc(OC3CCCC3)c3c(-c4ccc5nc(C)oc5c4)c[nH]c3n2)c(OC)c1")
"active"
>>> cat("NC(=O)C(=Cn1cnc(-c2cc(C(F)(F)F)cc(C(F)(F)F)c2)n1)c1cncnc1 + CNC(=O)c1ccc(Nc2nc(OC3CCCC3)c3c(-c4ccc5nc(C)oc5c4)c[nH]c3n2)c(OC)c1")
"inactive"
>>> cat("C=CC(=O)Nc1cc(Nc2nccc(-c3cn(C)c4ccccc34)n2)c(OC)cc1N(C)CCN(C)C + CNC(=O)c1ccc(Nc2nc(OC3CCCC3)c3c(-c4ccc5nc(C)oc5c4)c[nH]c3n2)c(OC)c1")
"inactive"
>>> cat("C=CC(=O)Nc1cc(Nc2nccc(-c3cn(C)c4ccccc34)n2)c(OC)cc1N(C)CCN(C)C + CN1CCN(c2cc(C(=O)Nc3cc4cc(-c5cnn(C)c5)ccc4cn3)ccn2)CC1")
"inactive"

In the following, a different compound is considered.
Problem: Field: outcome | Entry: NC(=O)C(=Cn1cnc(-c2cc(C(F)(F)F)cc(C(F)(F)F)c2)n1)c1cncnc1 + CN1CCN(c2cc(C(=O)Nc3cc4cc(-c5cnn(C)c5)ccc4cn3)ccn2)CC1
Result: inactive

---

System: 422866-222-R5-J1-PDC spheroid viability
Experiment: Anticancer human tumor 422866-222-R5-J1-PDC cell line growth inhibition [CLK];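 note: spheroids exposed to agents for seven days before readout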
Conditions: curve of first compound; second compound 3.16 µM; spheroids with HUVEC and MSC
parameter: IC50

>>> readout_value("CCCS(=O)(=O)Nc1ccc(F)c(C(=O)c2c[nH]c3ncc(-c4ccc(Cl)cc4)cc23)c1F + CN1CCN(c2cc(C(=O)Nc3cc4cc(-c5cnn(C)c5)ccc4cn3)ccn2)CC1")
"< 31.6 nM"
>>> readout_value("Cn1ncnc1[C@H]1c2n[nH]c(=O)c3cc(F)cc(c23)N[C@@H]1c1ccc(F)cc1 + CN1CCN(c2cc(C(=O)Nc3cc4cc(-c5cnn(C)c5)ccc4cn3)ccn2)CC1")
"< 0.316 nM"
>>> readout_value("O=c1[nH]cc(F)c(=O)[nH]1 + CNC(=O)c1ccc(Nc2nc(OC3CCCC3)c3c(-c4ccc5nc(C)oc5c4)c[nH]c3n2)c(OC)c1")
"> 10000 nM"
>>> readout_value("C=CC(=O)N1CCN(c2nc(=O)n(-c3c(C)ccnc3C(C)C)c3nc(-c4c(O)cccc4F)c(F)cc23)C(C)C1 (stereo not given) + CN1CCN(c2cc(C(=O)Nc3cc4cc(-c5cnn(C)c5)ccc4cn3)ccn2)CC1")
"< 31.6 nM"

Next:
Problem: Recorded IC50 for C=C(F)C(=O)N1CCN(c2nc(OCC3CCCN3C)nc3c2CCN(c2cccc4cccc(Cl)c24)C3)CC1CC#N (stereo not given) + CNC(=O)c1ccc(Nc2nc(OC3CCCC3)c3c(-c4ccc5nc(C)oc5c4)c[nH]c3n2)c(OC)c1 , please?
Result: < 31.6 nM

---

Test system: 422866-222-R5-J1-PDC spheroid viability
Experiment: Anticancer human tumor 422866-222-R5-J1-PDC cell line growth inhibition [CLK];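 note: spheroids exposed to agents for seven days before readout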
Details: second compound 3.16 µM; first compound 0.0316 µM; stronger effect = lower value; spheroids with HUVEC and MSC
Description: A high-throughput screen of multi-cell type tumor spheroids was designed to identify active combinations of […] and targeted small molecules. Complex spheroids include a stromal component modeled by human endothelial cells (HUVEC) and fibroblasts modeled by human mesenchymal stem cells (MSCs). […] Compounds. […] If the clinical Cmax for an agent had not been determined, the highest concentration tested was 10 microM. […]
# viability, T/C values compiled below
Numbers only; they are read as %.

Below: 3 compounds and their reported viability, T/C.
>>> readout_value("CC1COCCN1c1cc(C2(S(C)(=N)=O)CC2)nc(-c2ccnc3[nH]ccc23)n1 (stereo not given) + CNC(=O)c1ccc(Nc2nc(OC3CCCC3)c3c(-c4ccc5nc(C)oc5c4)c[nH]c3n2)c(OC)c1")
65.3
>>> readout_value("C#Cc1c(F)ccc2cc(O)cc(-c3ncc4c(N5CC6CCC(C5)N6)nc(OCC56CCCN5CC(F)C6)nc4c3F)c12 (stereo not given) + CN1CCN(c2cc(C(=O)Nc3cc4cc(-c5cnn(C)c5)ccc4cn3)ccn2)CC1")
11.2
>>> readout_value("CCc1c2c(nc3ccc(O)cc13)-c1cc3c(c(=O)n1C2)COC(=O)[C@]3(O)CC + CN1CCN(c2cc(C(=O)Nc3cc4cc(-c5cnn(C)c5)ccc4cn3)ccn2)CC1")
12.9

Problem: For the compound C=CC(=O)N1CCN(c2nc(=O)n(-c3c(C)ccnc3C(C)C)c3nc(-c4c(O)cccc4F)c(F)cc23)C(C)C1 (stereo not given) + CNC(=O)c1ccc(Nc2nc(OC3CCCC3)c3c(-c4ccc5nc(C)oc5c4)c[nH]c3n2)c(OC)c1 , what viability, T/C is on record?
Result: 32.3

Problem: Which value of viability, T/C has been reported for CC1COCCN1c1cc(C2(S(C)(=N)=O)CC2)nc(-c2ccnc3[nH]ccc23)n1 (stereo not given) + CN1CCN(c2cc(C(=O)Nc3cc4cc(-c5cnn(C)c5)ccc4cn3)ccn2)CC1 in the records?
Result: 10.7
